Target: human TLR7 (Homo sapiens)
Test: TLR7 inhibition reporter assay (HEK-Blue, SEAP)
Conditions: HEK-Blue cells overexpressing human TLR7, gardiquimod 7.5 μM, 22 hour incubation
readout_type: IC50 (nM)

Worked examples, 2 compounds total:
Cc1c(-c2[nH]c3ccc(C4CCN(C5CCOCC5)CC4)cc3c2C(C)C)cn2cnnc2c1C [Example 78] | 1.3
Cc1c(-c2[nH]c3ccc(C4CCN(C5CCOCC5)CC4)cc3c2C(C)C)ccc2nncn12 [Example 70] | 83.5

I = Cc1c(-c2[nH]c3ccc(C4CCN(CC#N)CC4)cc3c2C(C)C)cn2cnnc2c1Cl [Example 50]
II = COc1cc(-c2[nH]c3ccc(C4CCNCC4)cc3c2C(C)C)cn2cnnc12 [Example 11]
Task: Hi! Which is lower in terms of IC50, the first one I or the second one II ? Answer = label.
Result: I

---

Molecular target: human TLR8 (Homo sapiens)
Sequence (Q9NR97 27-1041): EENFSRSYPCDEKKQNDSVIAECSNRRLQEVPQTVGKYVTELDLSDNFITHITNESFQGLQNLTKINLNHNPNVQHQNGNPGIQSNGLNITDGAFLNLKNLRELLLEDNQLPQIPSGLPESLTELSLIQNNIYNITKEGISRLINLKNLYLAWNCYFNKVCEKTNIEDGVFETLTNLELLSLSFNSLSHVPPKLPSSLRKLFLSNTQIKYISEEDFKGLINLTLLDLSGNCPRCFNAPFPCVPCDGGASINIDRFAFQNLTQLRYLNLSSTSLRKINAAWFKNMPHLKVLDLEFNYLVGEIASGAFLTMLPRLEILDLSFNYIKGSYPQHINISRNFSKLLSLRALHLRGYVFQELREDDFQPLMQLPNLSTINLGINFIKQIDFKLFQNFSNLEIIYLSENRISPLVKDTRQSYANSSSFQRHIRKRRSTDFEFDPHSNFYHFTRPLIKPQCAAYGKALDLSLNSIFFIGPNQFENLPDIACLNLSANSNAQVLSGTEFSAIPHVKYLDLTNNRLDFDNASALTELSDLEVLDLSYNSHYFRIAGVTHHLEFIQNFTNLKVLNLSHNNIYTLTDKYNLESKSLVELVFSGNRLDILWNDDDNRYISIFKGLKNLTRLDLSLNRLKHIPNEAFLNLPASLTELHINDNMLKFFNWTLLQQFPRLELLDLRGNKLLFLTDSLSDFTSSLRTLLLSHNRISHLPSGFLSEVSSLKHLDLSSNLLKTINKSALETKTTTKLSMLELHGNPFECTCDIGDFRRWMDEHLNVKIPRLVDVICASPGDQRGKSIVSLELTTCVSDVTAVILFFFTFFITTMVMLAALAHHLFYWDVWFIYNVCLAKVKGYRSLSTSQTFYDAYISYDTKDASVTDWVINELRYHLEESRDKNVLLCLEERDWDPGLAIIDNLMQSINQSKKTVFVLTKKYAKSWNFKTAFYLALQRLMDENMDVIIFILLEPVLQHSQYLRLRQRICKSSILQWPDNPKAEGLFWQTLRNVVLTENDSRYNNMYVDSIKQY
Test: TLR8 inhibition reporter assay (HEK-Blue, SEAP)
Details: HEK-Blue cells overexpressing human TLR8, R848 15.9 μM, 22 hour incubation
Source text: TLR7/8/9 Inhibition Reporter Assays HEK-Blue™-cells (Invivogen) overexpressing human TLR7, TLR8 or TLR9 receptors were used for screening inhibitors of these receptors using an inducible SEAP (secreted embryonic alkaline phosphatase) reporter gene under the control of the IFN-β minimal promoter fused to five NF-κB and AP-1-binding sites. […]
readout_type: IC50 (nM)

Reference set (10 entries):
Cc1c(-c2[nH]c3ccc(C4CCN(C)CC4)cc3c2C(C)C)cn2cnnc2c1C | 12.1
Cc1cc(-c2[nH]c3ccc(C4CCN(CCS(C)(=O)=O)CC4)cc3c2C(C)C)cn2c(C)nnc12 | 2.1
Cc1cc(-c2[nH]c3ccc(C4CCN(C(=O)CN(C)C)CC4)cc3c2C(C)C)cn2cnnc12 | 14.6
Cc1cc(-c2[nH]c3ccc(C4CCN(CC5(C)COC5)CC4)cc3c2C(C)C)cn2cnnc12 | 1.1
CNC(=O)CN1CCC(c2ccc3[nH]c(-c4ccc5nnc(C)n5c4)c(C(C)C)c3c2)CC1 | 31.4
Cc1cc(-c2[nH]c3ccc(C4CCN(C5CCOCC5)CC4)cc3c2C(C)C)cn2cnnc12 | 3
Cc1nnc2ccc(-c3[nH]c4ccc(C5CCN(C(=O)CN(C)C)CC5)cc4c3C(C)C)cn12 | 39.1
CC(C)c1c(-c2ccc3nncn3c2)[nH]c2ccc(C3CCN(CC(=O)N(C)C)CC3)cc12 | 308
Cc1cc(-c2[nH]c3ccc(C4CCN(CC(C)(C)O)CC4)cc3c2C(C)C)cn2cnnc12 | 0.9
Cc1c(-c2[nH]c3ccc(C4CCN(CC#N)CC4)cc3c2C(C)C)cn2cnnc2c1Cl | 57

A = Cc1c(-c2[nH]c3ccc(C4CCN(C5CCOC5)CC4)cc3c2C(C)C)cn2cnnc2c1C (single isomer, unassigned) [Example 102]
B = Cc1c(-c2[nH]c3ccc(C4CCN(CC#N)CC4)cc3c2C(C)C)cn2cnnc2c1C
Task: Would you let me know which has the greater IC50 value, A or B ? Refer to your chosen entry by its label in the reply.
Result: B
(B: 31.8 nM, A: 8.2 nM)

1 = CC(C)c1c(-c2ccc3nncn3c2)[nH]c2ccc(C3CCNCC3)cc12
2 = Cc1cc(-c2[nH]c3ccc(C4CCN(CCO)CC4)cc3c2C(C)C)cn2cnnc12
Task: Which of the two items, 1 and 2 , has the greater recorded IC50? Identify your selection by its label.
Result: 1
(1: 140 nM, 2: 3.4 nM)

---

Target: UniProtKB Q9NR96
Assay: TLR9 inhibition reporter assay (HEK-Blue, SEAP)
Conditions: HEK-Blue cells overexpressing human TLR9, ODN2006 5 nM, 22 hour incubation
pIC50: −log10 of the molar value.
readout_type: pIC50

Guide cases for pIC50, answers given:
Cc1c(-c2[nH]c3ccc(C4CC(C)N(CCS(C)(=O)=O)C(C)C4)cc3c2C(C)C)cn2cnnc2c1C (single isomer, unassigned) [Example 111] | 4.72
Cc1cc(-c2[nH]c3ccc(C4CCN(C5CCOCC5)CC4)cc3c2C(C)C)cn2cnnc12 | 5.98
Cc1cc(-c2[nH]c3ccc(C4CCNCC4)cc3c2C(C)C)c(C)n2cnnc12 | 6.13
CC(C)c1c(-c2ccc3nncn3c2)[nH]c2ccc(C3CCN(C4COC4)CC3)cc12 | 4.82
Cc1c(-c2[nH]c3ccc(C4C[C@H]5CC[C@@H](C4)N5CC(=O)N(C)C)cc3c2C(C)C)cn2cnnc2c1C (single isomer, unassigned) [Example 119] | 5.99

1 = Cc1cc(-c2[nH]c3ccc(C4CCN(C5COC5)CC4)cc3c2C(C)C)cn2c(C)nnc12
2 = Cc1cc(-c2[nH]c3ccc(C4CCN(CC(=O)N(C)C)CC4)cc3c2C(C)C)cn2c(C)nnc12
Task: // select label with min value of measured pIC50 from [ 1 , 2 ] // return label of chosen record
Result: 1
(1: 5.10, 2: 5.84)

---

Molecular target: UniProt Q9NR97
Test: TLR8 inhibition reporter assay (HEK-Blue, SEAP)
Settings: HEK-Blue cells overexpressing human TLR8, R848 15.9 μM, 22 hour incubation
readout_type: IC50 (µM)

Cc1c(-c2[nH]c3ccc(C4CCN(CCN5CCOC5=O)CC4)cc3c2C(C)C)cn2cnnc2c1C | 0.0079

I = Cc1cc(-c2[nH]c3ccc(C4CCN(CC(C)(C)O)CC4)cc3c2C(C)C)c(C)n2cnnc12
II = Cc1c(-c2[nH]c3ccc(C4CC(C)N(CC5(C)COC5)C(C)C4)cc3c2C(C)C)cn2cnnc2c1C (single isomer, unassigned) [Example 113]
Task: Could you please tell me which of these two has the higher IC50: I or II ? Your answer should be the label of the entry you select.
Result: II

1 = Cc1c(-c2[nH]c3ccc(C4CCN(CCN5CCCS5(=O)=O)CC4)cc3c2C(C)C)cn2cnnc2c1Cl
2 = COc1cc(-c2[nH]c3ccc(C4CCN(C(C)C)CC4)cc3c2C(C)C)cn2cnnc12
Task: Smaller IC50 value, 1 vs 2 ? // return label of chosen record
Result: 1
(1: 0.0101 µM, 2: 0.0561 µM)

A = CC(C)c1c(-c2ccc3nncn3c2)[nH]c2ccc(C3CCN(C4CCOCC4)CC3)cc12
B = COc1cc(-c2[nH]c3ccc(C4CCN(C5CCOCC5)CC4)cc3c2C(C)C)cn2cnnc12
Task: Hi, I'm comparing A with B and wondering which one has the bigger number for IC50. Any idea? Please reply using the label of the selected record.
Result: A

---

Target: human TLR7 (Homo sapiens)
Test: TLR7 inhibition reporter assay (HEK-Blue, SEAP)
Conditions: HEK-Blue cells overexpressing human TLR7, gardiquimod 7.5 μM, 22 hour incubation
readout_type: IC50 (nM)

Example entries begin here.
Cc1c(-c2[nH]c3ccc(C4C[C@H]5CC[C@@H](C4)N5C4COC4)cc3c2C(C)C)cn2cnnc2c1C (single isomer, unassigned) [Example 123] | 7.6
CC(C)c1c(-c2ccc3nncn3c2)[nH]c2ccc(C3CCN(CC(=O)N(C)C)CC3)cc12 | 31.8

I = Cc1c(-c2[nH]c3ccc(C4CCN(CC(=O)N(C)C)CC4)cc3c2C(C)C)ccc2nncn12
II = CC(C)c1c(-c2ccc3nncn3c2)[nH]c2ccc(C3CCNCC3)cc12
Task: Lower IC50: I or II ? // output: label of the selected item
Result: II
(II: 22.8 nM, I: 49.5 nM)

---

Target: human TLR7 (Homo sapiens, UniProt Q9NYK1)
Sequence (Q9NYK1 27-1049): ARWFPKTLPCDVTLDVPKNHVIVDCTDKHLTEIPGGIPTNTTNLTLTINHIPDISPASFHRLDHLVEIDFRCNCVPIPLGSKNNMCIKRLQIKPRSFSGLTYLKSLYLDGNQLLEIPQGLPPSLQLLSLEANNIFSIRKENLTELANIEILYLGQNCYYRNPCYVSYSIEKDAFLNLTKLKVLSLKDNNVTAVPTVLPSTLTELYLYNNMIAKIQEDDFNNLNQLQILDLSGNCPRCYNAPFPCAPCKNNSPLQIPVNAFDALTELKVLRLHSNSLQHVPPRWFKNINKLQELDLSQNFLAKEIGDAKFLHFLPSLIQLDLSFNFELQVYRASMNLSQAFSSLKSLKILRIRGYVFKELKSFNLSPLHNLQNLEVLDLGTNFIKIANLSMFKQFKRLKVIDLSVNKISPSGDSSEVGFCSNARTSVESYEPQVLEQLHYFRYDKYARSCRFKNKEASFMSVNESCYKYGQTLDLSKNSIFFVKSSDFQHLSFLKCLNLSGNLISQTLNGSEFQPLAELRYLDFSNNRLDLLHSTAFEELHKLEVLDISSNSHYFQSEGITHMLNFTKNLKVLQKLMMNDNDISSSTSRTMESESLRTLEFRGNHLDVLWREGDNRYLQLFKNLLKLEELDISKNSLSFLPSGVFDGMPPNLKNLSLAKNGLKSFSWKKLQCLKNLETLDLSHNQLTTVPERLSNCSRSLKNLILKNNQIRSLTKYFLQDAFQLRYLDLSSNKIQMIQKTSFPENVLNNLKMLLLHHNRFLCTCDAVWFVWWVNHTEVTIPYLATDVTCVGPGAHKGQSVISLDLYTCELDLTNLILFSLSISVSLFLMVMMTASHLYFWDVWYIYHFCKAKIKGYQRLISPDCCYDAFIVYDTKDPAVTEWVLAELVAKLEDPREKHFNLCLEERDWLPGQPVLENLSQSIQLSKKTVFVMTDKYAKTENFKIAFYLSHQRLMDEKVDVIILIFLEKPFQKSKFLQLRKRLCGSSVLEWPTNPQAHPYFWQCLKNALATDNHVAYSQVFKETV
Assay: TLR7 inhibition reporter assay (HEK-Blue, SEAP)
Conditions: HEK-Blue cells overexpressing human TLR7, gardiquimod 7.5 μM, 22 hour incubation
pIC50: −log10 of the molar value.
readout_type: pIC50

Guide cases for pIC50, answers given:
Cc1c(-c2[nH]c3ccc(C4CCN(CCN5CCCS5(=O)=O)CC4)cc3c2C(C)C)cn2cnnc2c1C | 8.82
Cc1c(-c2[nH]c3ccc(C4CCN(CCCC(F)(F)F)CC4)cc3c2C(C)C)cn2cnnc2c1Cl | 8.72
Cc1c(-c2[nH]c3ccc(C4C[C@H]5CC[C@@H](C4)N5)cc3c2C(C)C)cn2cnnc2c1C (single isomer, unassigned) [Example 117] | 7.50
Cc1c(-c2[nH]c3ccc(C4CCN(Cc5ncn(C)n5)CC4)cc3c2C(C)C)cn2cnnc2c1C | 8.49
Cc1c(-c2[nH]c3ccc(C4CCN(C5CCOC5)CC4)cc3c2C(C)C)cn2cnnc2c1C (single isomer, unassigned) [Example 102] | 8.41

P = Cc1cc(-c2[nH]c3ccc(C4CCNCC4)cc3c2C(C)C)c(C)n2cnnc12
Q = Cc1c(-c2[nH]c3ccc(C4CCN(CC(=O)N(C)C)CC4)cc3c2C(C)C)cn2cnnc2c1C
Task: So which one has the bigger pIC50 here, P or Q ? Your answer should be the label attached to the chosen record.
Result: Q

---

Target: human TLR9 (Homo sapiens, UniProt Q9NR96)
Sequence (Q9NR96 26-1032): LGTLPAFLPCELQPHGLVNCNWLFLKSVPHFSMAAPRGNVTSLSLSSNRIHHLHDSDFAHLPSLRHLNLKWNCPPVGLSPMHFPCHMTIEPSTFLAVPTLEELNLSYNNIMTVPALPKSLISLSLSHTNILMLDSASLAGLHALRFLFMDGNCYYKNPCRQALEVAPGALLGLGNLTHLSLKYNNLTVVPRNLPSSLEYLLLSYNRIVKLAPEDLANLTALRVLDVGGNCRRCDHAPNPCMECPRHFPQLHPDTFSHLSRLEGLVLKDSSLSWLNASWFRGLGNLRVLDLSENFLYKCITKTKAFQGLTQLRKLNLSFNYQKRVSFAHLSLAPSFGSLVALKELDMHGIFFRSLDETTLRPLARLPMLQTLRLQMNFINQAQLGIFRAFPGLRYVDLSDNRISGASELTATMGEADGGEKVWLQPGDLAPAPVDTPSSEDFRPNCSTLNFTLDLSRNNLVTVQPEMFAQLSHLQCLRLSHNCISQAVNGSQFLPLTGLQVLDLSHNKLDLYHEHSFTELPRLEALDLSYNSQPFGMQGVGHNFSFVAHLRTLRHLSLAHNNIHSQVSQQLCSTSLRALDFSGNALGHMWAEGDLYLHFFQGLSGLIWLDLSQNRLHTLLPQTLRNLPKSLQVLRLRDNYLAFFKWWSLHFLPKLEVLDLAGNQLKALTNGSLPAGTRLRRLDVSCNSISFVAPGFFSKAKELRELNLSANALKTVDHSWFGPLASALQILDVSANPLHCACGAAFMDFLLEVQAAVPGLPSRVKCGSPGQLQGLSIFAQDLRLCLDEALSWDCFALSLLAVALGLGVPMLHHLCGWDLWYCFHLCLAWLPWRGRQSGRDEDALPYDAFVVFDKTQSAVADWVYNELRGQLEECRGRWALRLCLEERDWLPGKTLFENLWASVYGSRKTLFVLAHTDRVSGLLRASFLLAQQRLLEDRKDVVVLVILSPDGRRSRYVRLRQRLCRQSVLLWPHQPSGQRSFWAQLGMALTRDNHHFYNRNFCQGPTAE
Experiment: TLR9 inhibition reporter assay (HEK-Blue, SEAP)
Conditions: HEK-Blue cells overexpressing human TLR9, ODN2006 5 nM, 22 hour incubation
readout_type: IC50 (nM)

Please review the following examples before continuing.
Cc1c(-c2[nH]c3ccc(C4CCN(CC(C)(C)O)CC4)cc3c2C(C)C)cn2cnnc2c1C [Example 60] | 2900
Cc1cc2nncn2cc1-c1[nH]c2ccc(C3CCNCC3)cc2c1C(C)C [Example 4] | 2430
Cc1c(-c2[nH]c3ccc(C4C[C@H]5CC[C@@H](C4)N5CC(=O)N(C)C)cc3c2C(C)C)cn2cnnc2c1C (single isomer, unassigned) [Example 118] | 5460

1 = Cc1c(-c2[nH]c3ccc(C4CCN(C5CCOC5)CC4)cc3c2C(C)C)cn2cnnc2c1C (stereo not shown) [Example 93]
2 = Cc1ncc(CN2CCC(c3ccc4[nH]c(-c5cn6cnnc6c(C)c5C)c(C(C)C)c4c3)CC2)cn1 [Example 91]
3 = Cc1c(-c2[nH]c3ccc(C4CCN(CC5(C)COC5)CC4)cc3c2C(C)C)cn2cnnc2c1Cl [Example 80]
Task: Which order do these items take when sorted by rising IC50? List them. I would appreciate it if you listed the labels in the requested order.
Result: 2, 1, 3
